Exercise: for every item that follows, state its recorded protein stability index.
B1: C22orf31 (parent)
chain: YSLELGKAIKQKLWEALCSQGAIS

variants of: B1; experiment: protein stability index of a GFP-peptide fusion (GPS, HEK-293T) (PSI 1-6); higher = more stable; details: c terminus: a fixed tail appended;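 note: lentivirally expressed fusions sorted by FACS into six bins by GFP to DsRed ratio, PSI derived from sequencing read proportions per bin multiplied by bin number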
Numbers only.

Reference set, count: 2
A16D ... 1.98
S19Q ... 1.95

Now for the variant whose protein stability index we want.
Quick one: protein stability index of "K12H" ?
1.98
